# Assay System: T1, human OX40 on cells (CHO-hOX40, 293HEK-hOX40, Jurkat-hOX40, activated primary CD4+ T cells) (human, UniProt P43489 29-277)
# T1 construct: whole, on cells; The cell type is told in each assay; also called CHO-OX40
# T1 sequence (looked up): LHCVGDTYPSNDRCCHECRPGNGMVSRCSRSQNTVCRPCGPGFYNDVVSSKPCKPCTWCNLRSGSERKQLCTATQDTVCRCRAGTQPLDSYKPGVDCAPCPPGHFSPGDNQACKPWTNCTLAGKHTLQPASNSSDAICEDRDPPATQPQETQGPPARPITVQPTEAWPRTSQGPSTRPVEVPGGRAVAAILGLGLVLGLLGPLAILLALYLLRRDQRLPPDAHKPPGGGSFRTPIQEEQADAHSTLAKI
# Procedure Details: flow cytometry, MFI on CHO-hOX40 over wild-type CHO
Test Readout: Fold difference (fold)
Supply the numeric figure in fold, leaving out any unit text.

Look over these answered cases.
Binder: ADI-25651, IgG1 format (antibody, V domains shown, Made in yeast) VH: QVQLVESGGGVVQPGRSLRLSCAASGFTFSSRNMHWVRQAPGKGLEWVAVIAYDGSLKYYADSVKGRFTISRDNSKNTLYLQMNSLRAEDTAVYYCARGRPWYSETGTSAFDIWGQGTMVTVSS VL: DIQMTQSPSSLSASVGDRVTITCQASQDISNYLNWYQQKPGKAPKLLIYDASNLETGVPSRFSGSGSGTDFTFTISSLQPEDIATYYCQQSDHYPTFGGGTKVEIKR
Assay Result: 2340
//
Binder: ADI-25653, IgG1 format (antibody, V domains shown, Made in yeast) VH: QVQLVESGGGVVQPGRSLRLSCAASGFTFVSYNMHWVRQAPGKGLEWVAVIMYDGSAKYYADSVKGRFTISRDNSKNTLYLQMNSLRAEDTAVYYCARGRPWYSETGTSAFDIWGQGTMVTVSS VL: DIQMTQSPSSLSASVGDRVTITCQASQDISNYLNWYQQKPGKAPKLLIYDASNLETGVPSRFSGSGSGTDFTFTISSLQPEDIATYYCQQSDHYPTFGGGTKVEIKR
Assay Result: 2320

// moving on: another record for Fold difference
Problem: Quick one: give measured Fold difference for ADI-25654, IgG1 format (antibody, V domains shown, Made in yeast or CHO cells; also called ADI-25654-g1) VH: QVQLVESGGGVVQPGRSLRLSCAASGFTFRSYDMHWVRQAPGKGLEWVAYIAYDGSNKYYADSVKGRFTISRDNSKNTLYLQMNSLRAEDTAVYYCARGRPWYSETGTSAFDIWGQGTMVTVSS VL: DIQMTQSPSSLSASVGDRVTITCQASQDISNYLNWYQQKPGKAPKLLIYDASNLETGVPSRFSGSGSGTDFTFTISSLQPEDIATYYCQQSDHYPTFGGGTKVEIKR
Solution: 2260
